Experiment summary: Selectivity index, ratio of CC50 for cytotoxicity against mouse T lymphocytes to IC50 for Immunosuppressive activity in BALB/c mouse splenocytes assessed as reduction in ConA-induced mouse T-lymphocytes proliferation
Assay type: toxicity, cell-based
Readout kind: selectivity ratio
Respond using a number only.

COC1=C2C(=CC3Oc4c(CCC(C)(C)O)ccc(O)c4C(=O)C13)O[C@H]1OC=C[C@@H]21 (stereo partly drawn); 4.3
CO[C@H]1C[C@H]2C3=C(O)C4C(=O)c5c(O)ccc(CCC(C)(C)O)c5OC4C=C3O[C@H]2O1 (stereo partly drawn); 14
CC(C)=CCc1ccc(O)c2c1OC1C=C3O[C@H]4OC=C[C@@]4(O)C3=C(O)C1C2=O (stereo partly drawn); 1.1
CC(C)(O)CCc1ccc(O)c2c(=O)c3c(O)c4c(cc3oc12)O[C@H]1OC=C[C@@]41O; 4.9
CC(C)(O)CCc1ccc(O)c2c1OC1C=C3O[C@H]4OCC[C@H]4C3=C(O)C1C2=O (stereo partly drawn); 5.2

In the following, a different compound is considered.
Request: Indicate the recorded selectivity ratio value for this compound: COC1=C2C(=CC3Oc4ccc(Cl)c(OC)c4C(=O)C13)O[C@H]1O[C@H](OC(C)=O)C[C@@H]21 (stereo partly drawn)
Result: 1.8
